Measured SIGMA1 % Inhibition of Max Dose of individual entries
molecular target: human SIGMA1 receptor (Homo sapiens); experiment: SIGMA1 filtration radioligand binding assay ([3H]DTG, membranes of transfected HEK293 cells); set-up: expressed in transfected cells; membrane/cell debris preparation; conditions: Max Dose 20.000 μM
readout: SIGMA1 % Inhibition of Max Dose

>  <compound>
O=C1CNC(=O)CN1 [Cyclo(Gly-Gly)]

>  <readout>
SIGMA1 % Inhibition of Max Dose

>  <observed.measurement>
3.200%

$$$$
>  <compound>
O=C1NC(Cc2ccccc2)C(=O)N2CCCC12 (centres unmarked) [Cyclo(Phe-Pro)]

>  <readout>
SIGMA1 % Inhibition of Max Dose

>  <observed.measurement>
24.20%

$$$$
>  <compound>
O=C1N[C@@H](Cc2ccc(O)cc2)C(=O)N[C@H]1Cc1ccc(O)cc1 [Cyclo(Tyr-Tyr)]

>  <readout>
SIGMA1 % Inhibition of Max Dose

>  <observed.measurement>
40.29%

$$$$
>  <compound>
O=C1NC(Cc2ccccc2)C(=O)N2CC(O)CC12 (centres unmarked) [Cyclo(Hyp-Phe)]

>  <readout>
SIGMA1 % Inhibition of Max Dose

>  <observed.measurement>
54.26%

$$$$
>  <compound>
O=C1CNC(=O)[C@H](Cc2ccc(O)cc2)N1 [Cyclo(Gly-Tyr)]

>  <readout>
SIGMA1 % Inhibition of Max Dose

>  <observed.measurement>
42.82%

$$$$
>  <compound>
CC1NC(=O)CNC1=O (centres unmarked) [Cyclo(Ala-Gly)]

>  <readout>
SIGMA1 % Inhibition of Max Dose

>  <observed.measurement>
44.60%

$$$$
>  <compound>
O=C1NC(Cc2ccc(O)cc2)C(=O)N2CC(O)CC12 (centres unmarked) [Cyclo(Hyp-Tyr)]

>  <readout>
SIGMA1 % Inhibition of Max Dose

>  <observed.measurement>
49.80%

$$$$
>  <compound>
O=C1N[C@@H](Cc2ccccc2)C(=O)N[C@H]1Cc1ccccc1 [Cyclo(Phe-Phe)]

>  <readout>
SIGMA1 % Inhibition of Max Dose

>  <observed.measurement>
39.40%

$$$$

====

target: human SIGMA1 receptor (Homo sapiens); experiment: SIGMA1 filtration radioligand binding assay ([3H]DTG, membranes of transfected HEK293 cells); set-up: expressed in transfected cells; membrane/cell debris preparation; details: [3H]DTG 0.005 μM, membranes of HEK293 cells expressing human SIGMA1; read-out: SIGMA1 IC50

>  <molecule>
C[C@@H]1NC(=O)[C@H](Cc2cnc[nH]2)NC1=O [Cyclo(Ala-His)]

>  <IC50>
19.4 µM

$$$$
>  <molecule>
O=C1CNC(=O)[C@H](Cc2ccc(O)cc2)N1 [Cyclo(Gly-Tyr)]

>  <IC50>
> 20 µM

$$$$
>  <molecule>
C[C@@H]1NC(=O)[C@H](CCC(N)=O)NC1=O [Cyclo(Ala-Gln)]

>  <IC50>
13.4 µM

$$$$
>  <molecule>
O=C1CNC(=O)CN1 [Cyclo(Gly-Gly)]

>  <IC50>
> 20 µM

$$$$
>  <molecule>
O=C1NC(Cc2ccc(O)cc2)C(=O)N2CC(O)CC12 (stereo not shown) [Cyclo(Hyp-Tyr)]

>  <IC50>
> 20 µM

$$$$
>  <molecule>
O=C1NC(Cc2ccccc2)C(=O)N2CC(O)CC12 (stereo not shown) [Cyclo(Hyp-Phe)]

>  <IC50>
> 20 µM

$$$$
>  <molecule>
CC1NC(=O)CNC1=O (stereo not shown) [Cyclo(Ala-Gly)]

>  <IC50>
> 20 µM

$$$$
>  <molecule>
O=C1N[C@@H](Cc2ccccc2)C(=O)N[C@H]1Cc1ccccc1 [Cyclo(Phe-Phe)]

>  <IC50>
> 20 µM

$$$$
>  <molecule>
O=C1NC(Cc2ccccc2)C(=O)N2CCCC12 (stereo not shown) [Cyclo(Phe-Pro)]

>  <IC50>
> 20 µM

$$$$
>  <molecule>
O=C1N[C@@H](Cc2ccc(O)cc2)C(=O)N[C@H]1Cc1ccc(O)cc1 [Cyclo(Tyr-Tyr)]

>  <IC50>
> 20 µM

$$$$

====

target: human SIGMA1 receptor (Homo sapiens, UniProt Q99720); assay: SIGMA1 filtration radioligand binding assay ([3H]DTG, membranes of transfected HEK293 cells); parameters: expressed in transfected cells; membrane/cell debris preparation
Sequence (Q99720 whole entry): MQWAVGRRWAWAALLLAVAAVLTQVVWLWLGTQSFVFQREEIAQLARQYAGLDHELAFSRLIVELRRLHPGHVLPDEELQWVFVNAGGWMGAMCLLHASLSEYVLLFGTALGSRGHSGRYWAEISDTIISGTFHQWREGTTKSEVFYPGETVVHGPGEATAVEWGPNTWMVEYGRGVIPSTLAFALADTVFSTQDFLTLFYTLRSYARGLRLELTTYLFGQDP

>  <compound>
CC(C)C1NC(=O)CNC1=O (stereo not shown) [Cyclo(Val-Gly)]

>  <Ki>
9.95 µM

$$$$

====

target: human SIGMA1 receptor (Homo sapiens); test: SIGMA1 filtration radioligand binding assay ([3H]DTG, membranes of transfected HEK293 cells); design: expressed in transfected cells; membrane/cell debris preparation; settings: [3H]DTG 0.005 μM, membranes of HEK293 cells expressing human SIGMA1; read-out: SIGMA1 Ki
pKi: −log10 of the molar value.
readout: pKi

>  <compound>
O=C1N[C@@H](Cc2ccccc2)C(=O)N[C@H]1Cc1ccccc1

>  <target.system>
human SIGMA1 receptor (Homo sapiens)

>  <readout>
pKi

>  <observed.measurement>
< 4.76

$$$$
>  <compound>
CC1NC(=O)CNC1=O (stereo not shown)

>  <target.system>
human SIGMA1 receptor (Homo sapiens)

>  <readout>
pKi

>  <observed.measurement>
< 4.76

$$$$
>  <compound>
O=C1NC(Cc2ccccc2)C(=O)N2CC(O)CC12 (stereo not shown)

>  <target.system>
human SIGMA1 receptor (Homo sapiens)

>  <readout>
pKi

>  <observed.measurement>
< 4.76

$$$$
>  <compound>
C[C@@H]1NC(=O)[C@H](Cc2cnc[nH]2)NC1=O

>  <target.system>
human SIGMA1 receptor (Homo sapiens)

>  <readout>
pKi

>  <observed.measurement>
4.77

$$$$
>  <compound>
C[C@@H]1NC(=O)[C@H](CCC(N)=O)NC1=O

>  <target.system>
human SIGMA1 receptor (Homo sapiens)

>  <readout>
pKi

>  <observed.measurement>
4.93

$$$$
>  <compound>
O=C1NC(Cc2ccccc2)C(=O)N2CCCC12 (stereo not shown)

>  <target.system>
human SIGMA1 receptor (Homo sapiens)

>  <readout>
pKi

>  <observed.measurement>
< 4.76

$$$$
>  <compound>
O=C1CNC(=O)[C@H](Cc2ccc(O)cc2)N1

>  <target.system>
human SIGMA1 receptor (Homo sapiens)

>  <readout>
pKi

>  <observed.measurement>
< 4.76

$$$$
>  <compound>
O=C1N[C@@H](Cc2ccc(O)cc2)C(=O)N[C@H]1Cc1ccc(O)cc1

>  <target.system>
human SIGMA1 receptor (Homo sapiens)

>  <readout>
pKi

>  <observed.measurement>
< 4.76

$$$$
>  <compound>
O=C1CNC(=O)CN1

>  <target.system>
human SIGMA1 receptor (Homo sapiens)

>  <readout>
pKi

>  <observed.measurement>
< 4.76

$$$$
>  <compound>
O=C1NC(Cc2ccc(O)cc2)C(=O)N2CC(O)CC12 (stereo not shown)

>  <target.system>
human SIGMA1 receptor (Homo sapiens)

>  <readout>
pKi

>  <observed.measurement>
< 4.76

$$$$
